molecular target: UniProt:P28845; assay: biochemical; conditions: read-out: Average % inhibition at 100 nM, Biological Test Example 1; 100 nM
Sequence (P28845 whole entry): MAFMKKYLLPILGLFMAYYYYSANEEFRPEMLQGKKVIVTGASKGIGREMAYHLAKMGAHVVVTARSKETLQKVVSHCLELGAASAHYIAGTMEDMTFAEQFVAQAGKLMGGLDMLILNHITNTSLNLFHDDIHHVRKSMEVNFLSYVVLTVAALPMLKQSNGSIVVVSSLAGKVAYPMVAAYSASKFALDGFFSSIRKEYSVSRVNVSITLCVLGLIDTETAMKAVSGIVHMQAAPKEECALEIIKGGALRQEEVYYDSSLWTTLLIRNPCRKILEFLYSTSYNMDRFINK
REPORTED_PROPERTY: inhibition at 0.1 µM (%)

compound=CC(=O)NCC(C)(C)C[C@]1(c2ccc(F)cc2)CCN([C@@H](C)c2ccc(Br)cc2)C(=O)O1 reported_property="inhibition at 0.1 µM" reported_result=85.8
compound="C[C@@H](c1ccc(Br)cc1)N1CC[C@](C)(c2ccc(F)cc2)OC1=O (single isomer, unassigned) [EXAMPLE 518 Isomer 2]" reported_property="inhibition at 0.1 µM" reported_result=98
compound=C[C@@H](c1ccc(Cl)c(F)c1)N1CC[C@](CCCO)(c2ccc(F)cc2)OC1=O reported_property="inhibition at 0.1 µM" reported_result=97.8
compound=C[C@@H](c1ccc(-c2ccccc2)cc1)N1CC[C@](CCO)(c2ccccc2)OC1=O reported_property="inhibition at 0.1 µM" reported_result=98.3
compound=C[C@@H](c1ccc(F)cc1)N1CC[C@](CCO)(c2ccccc2)OC1=O reported_property="inhibition at 0.1 µM" reported_result=94.7
compound=COC(=O)c1ccccc1CN1CC[C@](CCCO)(c2ccc(F)cc2)OC1=O reported_property="inhibition at 0.1 µM" reported_result=60.8
compound=CC[C@@H](c1ccc(OC(F)F)cc1)N1CC[C@](CCC(N)=O)(c2ccc(F)cc2)OC1=O reported_property="inhibition at 0.1 µM" reported_result=97.7
compound=C[C@@H](c1ccc(Br)cc1)N1CC[C@](CCN2CCOCC2)(c2ccccc2)OC1=O reported_property="inhibition at 0.1 µM" reported_result=94.7
compound=C[C@@H](c1ccc(Cl)cc1)N1CC[C@](CC(C)(C)O)(c2ccccc2)OC1=O reported_property="inhibition at 0.1 µM" reported_result=96.8
compound=C[C@@H](c1ccc(Br)cc1F)N1CC[C@](CCCO)(c2ccc(F)cc2)OC1=O reported_property="inhibition at 0.1 µM" reported_result=96.4
compound=C[C@@H](c1ccc(Cl)cc1)N1CC[C@](CCCO)(c2ccccc2)OC1=O reported_property="inhibition at 0.1 µM" reported_result=99.5
compound=C[C@@H](c1cccc(C#N)c1)N1CC[C@](CCCOC(=O)C(F)(F)F)(c2ccc(F)cc2)OC1=O reported_property="inhibition at 0.1 µM" reported_result=67.4
compound=Cc1ccc([C@H](C)N2CC[C@](CCCO)(c3ccccc3)OC2=O)cc1 reported_property="inhibition at 0.1 µM" reported_result=97.6
compound=C[C@@H](c1ccc(C(F)(F)F)cc1)N1CC[C@](CCCNS(C)(=O)=O)(c2ccc(F)cc2)OC1=O reported_property="inhibition at 0.1 µM" reported_result=96.4
compound=CC[C@@H](c1ccc(OC(F)F)cc1)N1CC[C@](CCC(N)=O)(c2ccccc2)OC1=O reported_property="inhibition at 0.1 µM" reported_result=94.7
compound=C[C@@H](c1ccc(Br)cc1)N1CC[C@](CCCO)(c2ccc(F)cc2F)OC1=O reported_property="inhibition at 0.1 µM" reported_result=95.1
compound=C[C@@H](c1ccc(Br)cc1)N1CC[C@](CCCN(C)S(C)(=O)=O)(c2ccccc2)OC1=O reported_property="inhibition at 0.1 µM" reported_result=93.1
compound=CC(=O)N(C)CCC[C@]1(c2ccccc2)CCN([C@@H](C)c2ccc(Br)cc2)C(=O)O1 reported_property="inhibition at 0.1 µM" reported_result=97.7
compound=C[C@@H](c1cccc(Br)c1)N1CC[C@](CCC(C)(C)O)(c2ccc(F)cc2)OC1=O reported_property="inhibition at 0.1 µM" reported_result=60.7
compound=C[C@@H](c1ccc(Cl)cc1)N1CC[C@](CCCNS(C)(=O)=O)(c2ccccc2)OC1=O reported_property="inhibition at 0.1 µM" reported_result=91.2
compound=COC(=O)NC(C)(C)C[C@]1(c2ccc(F)cc2)CCN([C@@H](C)c2ccc(Br)cc2)C(=O)O1 reported_property="inhibition at 0.1 µM" reported_result=96.2
compound=C[C@@H](c1ccc(Br)cc1)N1CC[C@](CCNCCF)(c2ccc(F)cc2)OC1=O reported_property="inhibition at 0.1 µM" reported_result=70.9
compound=C[C@@H](c1ccc(Cl)cc1)N1CC[C@](CCC(C)(C)O)(c2ccc(F)cc2)OC1=O reported_property="inhibition at 0.1 µM" reported_result=81.3

These entries and their values trace back to patent US8575156B2.
